// provenance: patent US11566007B2

- target.entity: KRAS G12V (Homo sapiens (Human), UniProt P01116+P62937, G12V)
- Sequence (P01116-2 other isoform, or with tags, fused parts or gaps G12V, one chain of several): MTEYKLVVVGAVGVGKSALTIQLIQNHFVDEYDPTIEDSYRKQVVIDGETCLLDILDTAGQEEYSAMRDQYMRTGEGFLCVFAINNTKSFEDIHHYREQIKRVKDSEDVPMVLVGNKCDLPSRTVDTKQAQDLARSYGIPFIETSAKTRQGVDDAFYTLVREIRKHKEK
- assay.remarks: Ras-Raf (BRAF RBD) disruption / FRET / MOA assay, KRAS G12V
- Assay type: biochemical
- condition.info: read-out: IC50* KRAS G12V FRET data
measured.attribute: IC50

Use these answered entries as a reference point.
- compound: "C=CC(=O)N1CCN(C(=O)N(C)[C@H](C(=O)N[C@H]2Cc3nc(cs3)-c3ccc4c(c3)c(c(-c3cccnc3[C@H](C)OC)n4CC)CC(C)(C)COC(=O)[C@@H]3CCCN(N3)C2=O)C(C)C)CC12CC2 (atropisomer, axis not shown)"
  target.entity: "KRAS G12V (Homo sapiens (Human), UniProt P01116+P62937, G12V)"
  IC50: "100 to 1000 nM"
- compound: "C=CC(=O)N1CCN(C(=O)N(C)[C@H](C(=O)N[C@H]2Cc3nc(cs3)-c3ccc4c(c3)c(c(-c3cccnc3[C@H](C)OC)n4CC(F)(F)F)CC(C)(C)COC(=O)[C@@H]3CCCN(N3)C2=O)C(C)C)CC1 (atropisomer, axis not shown)"
  target.entity: "KRAS G12V (Homo sapiens (Human), UniProt P01116+P62937, G12V)"
  IC50: "10 to 100 nM"
- compound: "CCn1c(-c2ccccc2CCOC)c2c3cc(ccc31)-c1cc(O)cc(c1)C[C@H](NC(=O)[C@H](C(C)C)N(C)C(=O)c1ccc(N(C)C(=O)/C=C/CN(C)C)cc1)C(=O)N1CCC[C@H](N1)C(=O)OCC(C)(C)C2"
  target.entity: "KRAS G12V (Homo sapiens (Human), UniProt P01116+P62937, G12V)"
  IC50: "> 10000 nM"

Turning now to a further compound:
Asked: Given the compound C=CC(=O)N1CCO[C@H]2CN(C(=O)N(C)[C@H](C(=O)N[C@H]3CC4=NN=C(O4)c4ccc5c(c4)c(c(-c4cccnc4[C@H](C)OC)n5CC(F)(F)F)CC(C)(C)COC(=O)[C@@H]4CCCN(N4)C3=O)C(C)C)C[C@H]21 (atropisomer, axis not shown) , what is its reported IC50?
Given back: > 10000 nM

----------
- target.entity: KRAS G12D (Homo sapiens (Human), UniProt P01116+P62937, G12D)
- Sequence (P01116-2 other isoform, or with tags, fused parts or gaps G12D, one chain of several): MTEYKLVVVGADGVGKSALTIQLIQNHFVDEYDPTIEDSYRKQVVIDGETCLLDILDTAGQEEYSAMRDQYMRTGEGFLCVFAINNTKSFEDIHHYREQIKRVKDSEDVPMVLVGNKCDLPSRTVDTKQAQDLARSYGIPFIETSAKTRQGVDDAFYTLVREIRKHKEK
- assay.remarks: Ras-Raf (BRAF RBD) disruption / FRET / MOA assay, KRAS G12D
- Type: biochemical
- condition.info: Ras-Raf disruption/FRET/MOA assay; class symbols; read-out: KRAS G12D FRET data IC50
As shown below, each of these compounds has a reported IC50 value.

Asked: Given the compound C=CC(=O)N1CC(OC[C@H](C(=O)N[C@H]2C[C@H]3CN(CCO3)c3ccc4c(c3)c(c(-c3cccnc3[C@H](C)OC)n4CC(F)(F)F)CC(C)(C)COC(=O)[C@@H]3CCCN(N3)C2=O)C(C)C)C1 (atropisomer, axis not shown) , what is its reported IC50?
Given back: > 10 µM

Asked: And `C=CS(=O)(=O)N1CC[C@H](C(=O)N(C)[C@H](C(=O)N[C@H]2Cc3cc(O)cc(c3)-c3ccc4c(c3)c(c(-c3cncnc3)n4CC)CC(C)(C)COC(=O)[C@@H]3CCCN(N3)C2=O)C(C)C)C1` ?
Given back: > 10 µM

Asked: And C=CC(=O)N1CC[C@@]2(COCCN2C(=O)N(C)[C@H](C(=O)N[C@H]2Cc3nc(cs3)-c3ccc4c(c3)c(c(-c3cccnc3[C@H](C)OC)n4CC)CC(C)(C)COC(=O)[C@@H]3CCCN(N3)C2=O)C(C)C)C1 (atropisomer, axis not shown) ?
Given back: 1 to 10 µM

Asked: And C=CC(=O)N1CC[C@H](C(=O)N(C)[C@H](C(=O)N[C@H]2Cc3cc(CF)cc(c3)-c3ccc4c(c3)c(c(-c3cccnc3[C@H](C)OC)n4CC)CC(C)(C)COC(=O)[C@@H]3CCCN(N3)C2=O)C(C)C)C1 (atropisomer, axis not shown) [Example A505] ?
Given back: 1 to 10 µM

----------
- target.entity: K-Ras G12C (Homo sapiens (Human), UniProt P01116+P62937, G12C)
- Sequence (P01116-2 other isoform, or with tags, fused parts or gaps G12C, one chain of several): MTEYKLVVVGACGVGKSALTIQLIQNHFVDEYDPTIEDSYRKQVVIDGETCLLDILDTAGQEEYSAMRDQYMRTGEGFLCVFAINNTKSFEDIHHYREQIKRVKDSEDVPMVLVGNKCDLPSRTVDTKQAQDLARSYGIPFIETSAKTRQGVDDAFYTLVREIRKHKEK
- assay.remarks: Ras-Raf (BRAF RBD) disruption / FRET / MOA assay, KRAS G12C
- Format: biochemical
- condition.info: KRAS G12C; Ras-Raf disruption/FRET/MOA assay; read-out: IC50* KRAS G12C FRET data
pIC50: −log10 of the molar value.
As shown below, each of these molecules has a reported pIC50 value.

Use these answered entries as a reference point.
- molecule: "C=CC(=O)N1CC[C@H](C(=O)N(C)[C@H](C(=O)NC2C[C@@H]3CN(CCO3)c3ccc4c(c3)c(c(-c3cccnc3[C@H](C)OC)n4CC)CC(C)(C)COC(=O)[C@@H]3CC(Br)CN(N3)C2=O)C(C)C)C1 (some centres unmarked)"
  target.entity: "K-Ras G12C (Homo sapiens (Human), UniProt P01116+P62937, G12C)"
  pIC50: "5.00 to 6.00"
- molecule: "CCn1c(-c2cccnc2[C@H](C)OC)c2c3cc(ccc31)-c1csc(n1)C[C@H](NC(=O)CCOC1CN(C(=O)C#CC(C)(C)N3CCC3)C1)C(=O)N1CCC[C@H](N1)C(=O)OCC(C)(C)C2 (atropisomer, axis not shown)"
  target.entity: "K-Ras G12C (Homo sapiens (Human), UniProt P01116+P62937, G12C)"
  pIC50: "> 8.00"
- molecule: "CCn1c(-c2cccnc2[C@H](C)OC)c2c3cc(ccc31)-c1csc(n1)C[C@H](NC(=O)CCO[C@H]1CCN(C(=O)C#CC(C)(C)N3CCC3)C1)C(=O)N1CCC[C@H](N1)C(=O)OCC(C)(C)C2 (atropisomer, axis not shown)"
  target.entity: "K-Ras G12C (Homo sapiens (Human), UniProt P01116+P62937, G12C)"
  pIC50: "> 8.00"
- molecule: "C=CC(=O)N1CCN(C(=O)N(C)[C@H](C(=O)N[C@H]2Cc3cc(O)cc(c3)-c3ccc4c(c3)c(c(-c3ccccc3CCOC)n4CC)CC(C)(C)COC(=O)[C@@H]3CCCN(N3)C2=O)C(C)C)C[C@H]1COC"
  target.entity: "K-Ras G12C (Homo sapiens (Human), UniProt P01116+P62937, G12C)"
  pIC50: "6.00 to 7.00"

Asked: Requested read-out pIC50, target or system K-Ras G12C (Homo sapiens (Human), UniProt P01116+P62937, G12C), entry `C=CC(=O)N1CC[C@H](C(=O)N(C)[C@H](C(=O)N[C@H]2Cc3cc(O)cc(c3)-c3ccc4c(c3)c(c(-c3cnc(N(C)C)s3)n4CC)CC(C)(C)COC(=O)[C@@H]3CCCN(N3)C2=O)C(C)C)C1`
Given back: 6.00 to 7.00

Asked: And C=CC(=O)N(C)CCN1CCN(C(=O)N(C)[C@H](C(=O)N[C@H]2Cc3nc(cs3)-c3ccc4c(c3)c(c(-c3cccnc3[C@H](C)OC)n4CC)CC(C)(C)COC(=O)[C@@H]3CCCN(N3)C2=O)C(C)C)CC1 (atropisomer, axis not shown) ?
Given back: 6.00 to 7.00

Asked: And C=CC(=O)N1CC2(C1)CN(C(=O)N(C)[C@H](C(=O)N[C@H]1Cc3nc(cs3)-c3ccc4c(c3)c(c(-c3cccnc3[C@H](C)OC)n4CC)CC(C)(C)COC(=O)[C@@H]3CCCN(N3)C1=O)C(C)C)CCO2 (atropisomer, axis not shown) ?
Given back: 6.00 to 7.00

Asked: And C=CC(=O)N1CC[C@H](C(=O)N(C)[C@H](C(=O)N[C@H]2Cc3cccc(c3)-c3ccc4c(c3)c(c(-c3cc5c(nc3[C@H](C)OC)CN(C)CC5)n4CC)CC(C)(C)COC(=O)[C@@H]3CCCN(N3)C2=O)C(C)C)C1 (atropisomer, axis not shown) ?
Given back: 6.00 to 7.00

----------
- target.entity: NRAS G12C (Homo sapiens (Human), UniProt P01111+P62937, G12C)
- Sequence (P01111 whole entry G12C): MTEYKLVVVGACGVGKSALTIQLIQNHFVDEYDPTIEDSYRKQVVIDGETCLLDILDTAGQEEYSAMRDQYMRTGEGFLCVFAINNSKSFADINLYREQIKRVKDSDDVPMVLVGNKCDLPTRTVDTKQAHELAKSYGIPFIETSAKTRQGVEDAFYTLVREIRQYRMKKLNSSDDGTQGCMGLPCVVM
- Sequence (P62937 whole entry): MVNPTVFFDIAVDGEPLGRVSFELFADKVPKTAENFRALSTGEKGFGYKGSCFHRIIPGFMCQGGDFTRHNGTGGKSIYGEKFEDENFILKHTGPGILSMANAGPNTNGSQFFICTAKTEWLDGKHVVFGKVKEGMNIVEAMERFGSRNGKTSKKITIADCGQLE
- assay.remarks: Ras-Raf (BRAF RBD) disruption / FRET / MOA assay, NRAS G12C
- Assay type: biochemical
- condition.info: read-out: IC50* NRAS G12C FRET data
measured.attribute: IC50

- compound: "CCn1c(-c2cccnc2[C@H](C)OC)c2c3cc(ccc31)-c1csc(n1)C[C@H](NC(=O)[C@H](C)N(C)C(=O)[C@H]1CCN(C(=O)C#CC(C)(C)N3CCC3)C1)C(=O)N1CCC[C@H](N1)C(=O)OCC(C)(C)C2 (atropisomer, axis not shown)"
  IC50: "10 to 100 nM"

Asked: Given the compound CCn1c(-c2cccnc2COC)c2c3cc(ccc31)-c1cc(O)cc(c1)C[C@H](NC(=O)[C@H](C(C)C)N(C)C(=O)[C@H]1CCC(C(=O)/C=C\CN(C)C)C1)C(=O)N1CCC[C@H](N1)C(=O)OCC(C)(C)C2 (stereo partly shown) [Example A161] , what is its reported IC50?
Given back: 100 to 1000 nM

Asked: And CCn1c(-c2cccnc2[C@H](C)OC)c2c3cc(ccc31)-c1cccc(c1)C[C@H](NC(=O)CCOC1CN(C(=O)C#CC(C)(C)N(C)C)C1)C(=O)N1CCC[C@H](N1)C(=O)OCC(C)(C)C2 (atropisomer, axis not shown) ?
Given back: 10 to 100 nM

Asked: And CCn1c(-c2cccnc2[C@H](C)OC)c2c3cc(ccc31)-c1csc(n1)C[C@H](NC(=O)CCOC1CN(C(=O)C#CC(C)(C)N(C)C)C1)C(=O)N1CCC[C@H](N1)C(=O)OCC(C)(C)C2 (atropisomer, axis not shown) ?
Given back: < 10 nM
